test system: K4 kissing-loop RNA reporter; assay: apparent KD of K4 kissing-loop reporter; higher = weaker reporter binding; conditions: Eterna round: R107; input ligand: theophylline 20 uM;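 further: bound reporter read as fluorescence of individual clusters on recovered sequencing chips by microscopy, with normalized cluster intensities fitted with a binding model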
readout: apparent KD of K4 kissing-loop reporter (nM)
Answer format: numeric, nM implied, no suffix.

Provide apparent KD of K4 kissing-loop reporter value for the following sequence: UGAUGUUUAGUUCACCCAGUGAUGUUGGAAGGAGCGUGCGAAAGCACAGGUAGGUCGCCAACCUAAAAGUGUCUUGAUUAUCUAA [JR_Nu_ExcArginiA_Sub028]
460

Please indicate apparent KD of K4 kissing-loop reporter recorded for CCAUUCAUCAGAAGGAGCGUCAAGUGAUGCUAUCCAGUGAUGUUGGAUAGCACGGAACAGUGACAGGUAGGUCGCUGAUGAGAGC [Arg B SS t8]
95.7

Retrieve apparent KD of K4 kissing-loop reporter measured for AGUCCACUCUAAAGAGUGGACCUAAGGGAUACCAGUGAUGUUGGUCACCCUUGGCAGCCCACUGUCAUCGAUAAAGAUGGCAGGA and print it.
119

Look up and state reported apparent KD of K4 kissing-loop reporter for AAAUUUAAUAUAUUUAAUUAAUUAUGUGAUACCAGACAUUUAUAAGUCCCUUGGCAGCACUUUGCAGUGAUGUUGCAUAUAAUAA [JR_SSTheophyA_Sub013]
157

Quickly give me recorded apparent KD of K4 kissing-loop reporter for AGUAGUUGGACGGCCGCCACUAGAACAGCUUUGCCAAAGGCAGAGCACUAGAGUGAUGUUCUAGCUAGGACCGGGUCCAACUACA [Omei KL Tryp B SS A v1]
118

Report apparent KD of K4 kissing-loop reporter, nothing else, for this sequence: UGAUACCAGACGGCCGCCACUCCCGUAAGUCAAAGACUUACCAAGAGAAUCGUCCAGUGAUGUUGGAGGACCGGGUCUGGUAUCU [FiskerMod 8 - Jieux - Exclusion - Tryptophan B]
732

###

test system: MS2 coat protein; test: apparent KD of MS2 coat protein; designed switch direction (-1 OFF switch, 1 ON switch): -1; higher = weaker reporter binding; details: input ligand: FMN 200 uM
Task for the reader: assign each of the following sequences its reported apparent KD of MS2 coat protein.
Answer in nM, number only, no unit symbol.

// fetch apparent KD of MS2 coat protein given entry AUUUUAGAAGGAUAUUGACCGGUGGACAUGAGGAUCACCCAUGUCGUCCUGCCCAUUCCGUAAGAAGGUCUAGCGU [Eternabot (L1) Solution 96] (Eterna round: R97, puzzle: Exclusion 5)
23.7

Consider the sequence AGUAUGUGAGGAUAUUUUUCGUCCGGUAGGAUACUACAGAGAAAGAAGGCACAUGAGGAUCACCCAUGUGAGAC [Eternabot (L1) Solution 55] (Eterna round: R97, puzzle: Exclusion 4) and give its recorded apparent KD of MS2 coat protein.
48.3

// fetch apparent KD of MS2 coat protein given entry CGGCUACGAUGAGGAUAUACGCACAUGAGGAUCACCCAUGUAAAUCACGGGUAAAGAUCGCCAUCGUAGAAGGCAUAAGGGCCC [Orsole] (Eterna round: R96, puzzle: Exclusion NG 2)
80.3

Return reported apparent KD of MS2 coat protein. Input sequence: UUUACAAGCUAUUGAUCCCACAUGAGGAUCACCCAUGUUCAUGGCCGUGAGGCUAGGUAUACAAUUGCUCGUCUUAU [mod-JR] (Eterna round: R97, puzzle: Sensor, turn-off variant 1)
59.8

Report apparent KD of MS2 coat protein, nothing else, for this sequence: CCAGUGUGCUUCAGGACAUGAGGAUCACCCAUGUUCGCAAAAUAGGAUAUUGGGUGUAGGCCGCGCAAGAAGGGUUAUGCGAAC [Disobeus] (Eterna round: R96, puzzle: Exclusion NG 3)
117

Input UAUUAGCAAGCAAGAUCCUACAUGAGGAUCACCCAUGUGCUCGUCUUAAACUCAGAAUUACUGAGAGCUCGUCUUAU [Winner reversed engineered 24] (Eterna round: R97, puzzle: Sensor, turn-off variant 1) , output reported apparent KD of MS2 coat protein.
443

Consider the sequence AGUCGGUCAGGAUAUGCAAUUGUGGACAUGAGGAUCACCCAUGUAACGUGGGCUUGGUUUGUAGAAGGGACGUGCA [EX5 #90] (Eterna round: R97, puzzle: Exclusion 5) and give its recorded apparent KD of MS2 coat protein.
378

Supply reported apparent KD of MS2 coat protein belonging to this sequence: AAAAUACGCACAGGAUAUCAAUACAUGAGGAUCACCCAUGUAACAUGGACUGGUCAGCAGAAAAGUGAGAAGGGUGCUGACGAC [Beraon] (Eterna round: R96, puzzle: Exclusion NG 2)
187

Give apparent KD of MS2 coat protein for the following sequence: UGCAAUCUUAUGAUAUCUCACAUGAGGAUCACCCAUGUGCUCGUCUUAUGUUCUGUUUUGCUGUUGUCCGGCCGGCC [1st try] (Eterna round: R97, puzzle: Sensor, turn-off variant 1)
27.5

###

system: MS2 coat protein; experiment: apparent KD of MS2 coat protein; designed switch direction (-1 OFF switch, 1 ON switch): -1; higher = weaker reporter binding; settings: input ligand: none
Consider the following sequences; for each one, report its apparent KD of MS2 coat protein.
# output: bare number, implied unit nM

Check the records and state apparent KD of MS2 coat protein for GUCGUGUUAGGAUAUAACAACUACUAAUAAAUUAGUAGUUGUUAGAAGGAACAUGAGGAUCACCCAUGUAUGAC [-23.4, -22.9 kcal, A 36%] (Eterna round: R97, puzzle: Exclusion 4)
43.1

Recall and state the measured apparent KD of MS2 coat protein for GGAGGACGAGCAGGAUAUUUUCACAUGAGGAUCACCCAUGUGUAAUCAGGGUAAUCCUCCGCCGAAAAGAAGGGUUCGGAAUAA [Mat - Exclusion NG 2 - Mod of JL - D82] (Eterna round: R96, puzzle: Exclusion NG 2) .
70.5

###

test system: MS2 coat protein; test: apparent KD of MS2 coat protein; designed switch direction (-1 OFF switch, 1 ON switch): 1; higher = weaker reporter binding; conditions: input ligand: FMN 200 uM
For each entry below, report its apparent KD of MS2 coat protein value.

Give me measured apparent KD of MS2 coat protein, please, for this sequence: GAGUGGUAGAGAGGAUAUGCAUUGUUAUUCACUGUAGAAGGUUUUAACAUGAGGAUCACCCAUGUAGGACUAUUCCUGUGUUUU [Parity 62 - Jieux - Same State NG 1] (Eterna round: R96, puzzle: Same State NG 1)
0.0163 µM

Consider the sequence GUGGUCAGACAUGAGGAUCACCCAUGUGGAAUAAAUAACGGACAGGAUAUUCAAUAUAGGAUAUAGAAGAAGGGUUGAUUGGUG (Eterna round: R96, puzzle: Same State NG 3) and give its recorded apparent KD of MS2 coat protein.
0.143 µM

Give the reported apparent KD of MS2 coat protein for this sequence. CUUUUUAAUGCAGGAUAUGAUCAACAUGAGGAUCACCCAUGUGGCGUUGUGAGUAGGGAGAGUGAUCAGAAGGGCAUCUCCUCG [SS-NG2-LRO08] (Eterna round: R96, puzzle: Same State NG 2)
0.068 µM

Tell me its apparent KD of MS2 coat protein given GGUGCAAUAAACGCCUACAUGAGGAUCACCCAUGUAUGUAGGCAGGAUAUCGUAUGCAAAGCAUACGAGAAGGGCUAUAGUACC [Mat - Same State NG 3 - JL Mod - D45] (Eterna round: R96, puzzle: Same State NG 3) as the entry.
0.0571 µM

###

test system: MS2 coat protein; assay: apparent KD of MS2 coat protein; higher = weaker reporter binding; conditions: Eterna round: R107; input ligand: none
readout: apparent KD of MS2 coat protein (nM)
Express it in nM; write the number only.

Identify measured apparent KD of MS2 coat protein associated with GGUUGAAACUGAAGGAGCGAGAUGACAACAUUGGGUCUAACAUGAGGAUCACCCAUGUAAUCUCAGGUAGGUCGCAGUGACCAAA [Exclusion Arginine B GF 14]
50.2

For AAACAUGAGGAUCACCCAUGUAAAGUUGAAGGAGCGACCAGAGGGUCAGGUAGGUCGCAACACAUGAGGAUCACCCAUGUAUCGA [DOUBLE!!! :-D #5] , write its apparent KD of MS2 coat protein.
96.5

Recall and state the measured apparent KD of MS2 coat protein for AGCGACAUGCGUGAUACCAGCUACAUGAGGAUCACCCAUGUCAGUAGGAAACUACUGUGUAGCCCUUGGCAGCACAGUGCAUGUC [Exclusion - Theophylline B (Freestyle 26)] .
16.4

Check the records and state apparent KD of MS2 coat protein for ACAUGAGGAUCACCCAUGUAUUCAUCAGAAGGAGCGUGGAAUAACACAGGUAGGUCGCUGAUUAUUUGUUAAAUAAAAUCGUGUA [JR_Nu_SSArginiA_Sub022]
17.3

Please report the measured apparent KD of MS2 coat protein for AAUACAUGAGGAUCACCCAUGUAAGCUGAAGGAGCGCUGGAAACAGCAGGUAGGUCGCAGCUGCGACCUUGGUGAUCUAGGUCGC [(M1)-(M2)-(Arg1)-(Arg2)-(A)'-(M)'-(A)''_Design7]
36.6

Given the sequence UUAAUCAUAUAUGAAAACAUAUAUGCAGAAGGAGCGUGAUAAAACACAGGUAGGUCGCUGAAGGGAACAUGAGGAUCACCCAUGU [AstrosSSArgA#2] , write its reported apparent KD of MS2 coat protein.
24.8

Specify apparent KD of MS2 coat protein for AUCAUGGCCAUCGAUACCAGCUACAUGAGGAUCACCCAUGUAAACGGCCCGGUGAGAUGUAGCCCUUGGCAGCGAAGGGUCGAGG [Inenenatti] and stop.
18.6

Specify apparent KD of MS2 coat protein for AGGACGGUCGGAAGGAGCGGUACAUGAGGAUCACCCAUGUAUUCCUGGGCAUCCGUAGUGUGCCAGGUAGGUCGCCGAUUGCGGG [XArg-B7] and stop.
32.7

Write down apparent KD of MS2 coat protein measured for item CGGCCCUCACACGAGGAUCACCCGUGUGAUACCAGCCUGGAAACAGGCCCUUGGCAGCACAAGGUCAUCAAAGAUGACCAAGCCG [TheoAX 22 #SwitchBubble]
11.9

For UUACAUGAGGAUCACCCAUGUCAUACAGAAGGAGCGUCACAUAAGACAGGUAGGUCGCUGUUAUUUUUUACUAUUAUAUCCUCUA [JR_Nu_ExcArginiA_Sub030] , write its apparent KD of MS2 coat protein.
30.8

Could you please provide reported apparent KD of MS2 coat protein for UACAUAUGCCGAAGGAGCGUGAGAUGCAAAGCAUCAUUCCUCACAUGAGGAUCACCCAUGUCACAGGUAGGUCGCGGCAUAUGUU [ArgBX 3] ? Thanks!
90

Retrieve apparent KD of MS2 coat protein measured for GCCUCAUGUAGAAGGAGCGUCAGAAGCUACAGACAUGAGGAUCACCCAUGUUAGUUGAUCUGACAGGUAGGUCGCUACAGCAGGA [Arg B SS t7] and print it.
37

Provide only the value of recorded apparent KD of MS2 coat protein for AUACAUGAGGAUCACCCAUGUAUAGAUGAAGGAGCGACCAGAGGGUCAGGUAGGUCGCAUCACAUGAGGAUCACCCAUGUAUUUU [DOUBLE!!! :-D #10]
64

Provide measured apparent KD of MS2 coat protein value, entry: ACAUUUAACUGAAGGAGCGUGAUUAACAUGAGGAUCACCCAUGUAACUUAGAUGCUUAUAUCACAGGUAGGUCGCAGACUAAUGA [JR_ExcArginiB_Sub011]
13.6

Using the record for CCGUUAAAAUUCCAUUAUACAAUACCUGAAGGAGCGUAGGAAACUACAGGUAGGUCGCAGAUACAUGAGGAUCACCCAUGUACGG [SSAA #13] , state its measured apparent KD of MS2 coat protein.
16.2

Report apparent KD of MS2 coat protein, nothing else, for this sequence: UUUUUCGCGGGUGAUACCAGCAAAGUUGUACUGGUCUGGUACAUGAGGAUCACCCAUGUUUGCCCUUGGCAGCGCUCGGGAGAAG [#22 Exclusion-TheophyllineB]
21

Tell me its apparent KD of MS2 coat protein given ACAAGAGGGAUGGAUACCAGCGACAUGAGGAUCACCCAUGUAUGAGGAUCAGCCAUGUUAUGCCCUUGGCAGCCACGAACAUCAG [SSAMULLIN] as the entry.
21.2

Give a short answer stating reported apparent KD of MS2 coat protein for AGCCGGAUUACGGCCGCCACUGUAGACGUGACGAAAGUCGCGUCAACAUGAGGAUCACCCAUGUACAGGACCGGGUGGUCCGGCG [Omei Trp B SS A v1] .
13.7

Could you please provide reported apparent KD of MS2 coat protein for ACAUGAGGAUCACCCAUGUAUGACUAUCCUCGAGGACCGGUACGGCCGCCACUCGAACGAGUGGCUCGCGAGUGCGCACUUGCGA [5' end] ? Thanks!
13.2

Tell me apparent KD of MS2 coat protein reported for UUCAGCUAGUCGGCCGCCACUACAAGAGGAUCACCCUUGUAGGUCCACACUGCUUCGGCAGUGAGUAGGACCGGGACUAGCUGAG
11.3

// Input: GUACAUGAGGAUCACCCAUGUAUAGUUGAAGGAGCGACCAGAGGGUCAGGUAGGUCGCAGCACAUGAGGUAAGCCCGUGUAUGCU [#1 Exclusion - Arginine A Attempt #19 (Inspired by Pi)] . Output its apparent KD of MS2 coat protein only.
50.6

// Input: CGGCCCUCACCUGAGGAACACCCAGGUGAUACCAGCCUGGAAACAGGCCCUUGGCAGCACCAGGUCAUCAAAGAUGACCAAGCCG [TheoAX 24 #SwitchBubble #AlternativeMS2] . Output its apparent KD of MS2 coat protein only.
20.1

Specify apparent KD of MS2 coat protein for UGGAGUAGGGUAAAUAGGAUAAGUACAGAAGGAGCGCGAAUAAACGCAGGUAGGUCGCUGGAACACAUGAGGAUCACCCAUGUUG [Same State Arginine A GF 24] and stop.
25.4
